# subject-of-test: XIAP BIR3 (N-His-Tb-BIR3(241-356, XIAP)) (Homo sapiens (Human), UniProt P98170)
# Sequence (P98170 241-356): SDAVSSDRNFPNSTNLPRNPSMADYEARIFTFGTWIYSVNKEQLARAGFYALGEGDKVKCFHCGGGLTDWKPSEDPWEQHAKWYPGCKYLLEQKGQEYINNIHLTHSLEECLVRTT
# Assay type: binding
# experimental-context: 130 nM N-His-Tb-BIR3(241-356, XIAP), 1.4 nM fluoresceinated modified SMAC peptide, 60 minutes room temperature; read-out: XIAP BIR3 FPA IC50
value-kind: pIC50
One number for each entry, as −log10 of the molar value.

Solved cases (6 shown):
[[record]]
compound = "CN[C@@H](C)C(=O)N[C@H](C(=O)N1C[C@@H](NC(=O)c2ccc(CN(CCc3ccc4ccccc4c3)C(=O)[C@@H]3Cc4ccccc4CN3C(=O)[C@@H](NC(=O)[C@H](C)NC)C(C)(C)C)cc2)C[C@H]1C(=O)N[C@@H]1CCCc2ccccc21)C(C)(C)C"
endpoint_value = 7.05

[[record]]
compound = "CN[C@@H](C)C(=O)N[C@H](C(=O)N1C[C@@H](NC(=O)c2ccc(CN(Cc3ccccc3)C(=O)[C@@H]3Cc4ccccc4CN3C(=O)[C@@H](NC(=O)[C@H](C)NC)C(C)(C)C)cc2)C[C@H]1C(=O)N[C@@H]1CCCc2ccccc21)C(C)(C)C"
endpoint_value = 7.40

[[record]]
compound = "CNC(C)C(=O)N[C@H](C(=O)N1C[C@@H](NC(=O)c2ccc(C(=O)N(C[C@@H]3Cc4ccccc4CN3C(=O)[C@@H](NC(=O)[C@H](C)NC)C(C)(C)C)[C@H](C)Cc3ccccc3F)cc2)C[C@H]1C(=O)N[C@@H]1CCCc2ccccc21)C(C)(C)C (stereo in doubt)"
endpoint_value = 7.00

[[record]]
compound = "CN[C@@H](C)C(=O)N[C@H](C(=O)N1CC(NC(=O)c2cccc(CN(C(=O)[C@@H]3Cc4ccccc4CN3C(=O)[C@@H](NC(=O)[C@H](C)NC)C(C)(C)C)C(COC)c3ccccc3)c2)C[C@H]1C(=O)NC1CCCc2ccccc21)C(C)(C)C (stereo in doubt)"
endpoint_value = 7.10

[[record]]
compound = "CN[C@@H](C)C(=O)N[C@H](C(=O)N1CCc2ccccc2[C@H]1C(=O)N(Cc1ccc(C(=O)N[C@H]2C[C@@H](C(=O)N[C@@H]3CCCc4ccccc43)N(C(=O)[C@@H](NC(=O)[C@H](C)NC)C(C)(C)C)C2)cc1)[C@H](C)Cc1ccccc1F)C(C)(C)C"
endpoint_value = 7.05

[[record]]
compound = "CN[C@@H](C)C(=O)N[C@H](C(=O)N1C[C@@H](NC(=O)c2ccc(CN(C(=O)[C@@H]3Cc4ccccc4CN3C(=O)[C@@H](NC(=O)[C@H](C)NC)C(C)(C)C)[C@H](C)c3ccc4ccccc4c3)cc2)C[C@H]1C(=O)N[C@@H]1CCCc2ccccc21)C(C)(C)C"
endpoint_value = 7.05


Below: the item to evaluate.
For the record `CN[C@@H](C)C(=O)N[C@H](C(=O)N1C[C@@H](NC(=O)c2ccc(CN(CCc3ccccc3)C(=O)[C@@H]3Cc4ccccc4CN3C(=O)[C@@H](NC(=O)[C@H](C)NC)C(C)(C)C)cc2)C[C@H]1C(=O)N[C@@H]1CCCc2ccccc21)C(C)(C)C` , what value of pIC50 is listed for XIAP BIR3 (N-His-Tb-BIR3(241-356, XIAP)) (Homo sapiens (Human), UniProt P98170)?
7.52

Source listed as patent US9603889B2.
